Data credit: patent US20260242478A1

molecular target: T1, Anti-CD28 Fab (SEQ ID NOs: 696, 697); experiment: phage ELISA; clonal phage supernatant on biotinylated anti-CD28 Fab captured on neutravidin, anti-M13 HRP detection
T1 construct: In the phage ELISA the Fab was biotinylated and captured on neutravidin coated plates
T1 sequence (VH, as listed by the source, chain 1 of 2): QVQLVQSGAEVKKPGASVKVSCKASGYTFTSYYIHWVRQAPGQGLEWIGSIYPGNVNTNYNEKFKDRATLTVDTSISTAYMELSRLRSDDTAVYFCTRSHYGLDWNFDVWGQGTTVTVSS
T1 sequence (VL, as listed by the source, chain 2 of 2): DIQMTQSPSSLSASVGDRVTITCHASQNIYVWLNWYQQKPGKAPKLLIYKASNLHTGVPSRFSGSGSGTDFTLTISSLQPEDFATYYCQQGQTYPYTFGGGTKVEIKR
Measured Anti-CD28 Fab signal (phage binding ELISA), listed per entry for reference.

Use these answered entries as a reference point.
binder: YCEGHMWEYMAKCL [Phage-935]
value_reported: 1.64
//
binder: YCEGHSAQYMHKCL [Phage-931]
value_reported: 1.64

Anti-CD28 Fab signal (phage binding ELISA) reported for this binder YCDGHLDVYRAKCL [Phage-941] : 1.63

Please fill in: Anti-CD28 Fab signal (phage binding ELISA) reported for YCEGHTAEHMQKCL [Phage-932] = 1.64

Per the records, this binder ( YCDGHATEYMQKCL [Phage-934] ) has Anti-CD28 Fab signal (phage binding ELISA) equal to 1.64
